Listing: cytotoxicity at 70.5 h of selected molecules
assay procedure: Human HepG2 cell viability assay in 384 well format
Assay type: toxicity, cell-based
Parameters: dose 125 nL, time 70.5 hour; concentration not given beside the values
condition: HepG2 cells, read-out: Inhibition
Response body: numeric value in %, unit text excluded.

// lookup cytotoxicity at 70.5 h for O=C1OCCC1N1CCN(C(=O)Cc2ccccc2Cl)CC1 (configuration not stated)
-0.257

// lookup cytotoxicity at 70.5 h for CC(C)(C)C(=O)NCCc1cc(N2CCOCC2)nc(NC2CC2)n1
-9.36

// lookup cytotoxicity at 70.5 h for CC(C)(C)CNC(=O)CNC(=O)C1CC1
0.566

// lookup cytotoxicity at 70.5 h for Fc1ccc(OCCCN2CCOC(Cn3cncn3)C2)cc1 (configuration not stated)
-5.61

// lookup cytotoxicity at 70.5 h for Cc1cc(=O)n(CC(=O)NCC2CCCO2)c(-c2ccccc2)n1 (configuration not stated)
2.72

Next:
// lookup cytotoxicity at 70.5 h for Cc1nccn1CCC(=O)N1CCCN(c2ccccc2)CC1
-6.92

// lookup cytotoxicity at 70.5 h for COCc1cccc(CNC(=O)CN2CCCC2c2noc(C)n2)c1 (configuration not stated)
-13.1

// lookup cytotoxicity at 70.5 h for O=C(c1ccnnc1)N1CCC2(CCN(c3ccsc3)C2=O)C1 (configuration not stated)
-0.84

// lookup cytotoxicity at 70.5 h for COCC(=O)N1CCc2nc(-c3cnccn3)nc(O)c2C1
-8.12

// lookup cytotoxicity at 70.5 h for COCCNC(=O)c1ccc2ccc(N(C)CC3CC3)n2c1
-5.92

// lookup cytotoxicity at 70.5 h for CCC[C@H]1CN(Cc2nccn2C)C[C@@H]1NC(=O)C1(COC)CCC1
-4.15

// lookup cytotoxicity at 70.5 h for CS(=O)(=O)NC[C@]12COC[C@H]1CN(C(=O)C1CCCCC1)C2
-8.19

// lookup cytotoxicity at 70.5 h for Cc1ccc(NC(=O)CN(C)C(=O)c2ccc(-n3cccc3)nc2)nc1
-1.66

// lookup cytotoxicity at 70.5 h for CCNC(=O)NC(C)(C)C(=O)NCc1cccc(N2CC=CC2)c1
2.33

// lookup cytotoxicity at 70.5 h for CN(CC(=O)NCCc1cc2ccccc2o1)S(C)(=O)=O
13.9

// lookup cytotoxicity at 70.5 h for COCC1CC2(CCN(C(=O)c3ccc(C)nc3)CC2)CO1 (configuration not stated)
-5.4

// lookup cytotoxicity at 70.5 h for CC(C)CNC(=O)c1cn(C)c(=O)c2ccccc12
7.18

// lookup cytotoxicity at 70.5 h for O=C(NCCC(O)c1cccs1)c1ccc(Br)o1 (configuration not stated)
-10.7

// lookup cytotoxicity at 70.5 h for CCCC1CN(CCOc2ccccc2)C(=O)c2cccnc2O1 (configuration not stated)
4.28

// lookup cytotoxicity at 70.5 h for CC(C)c1ncc(CN2C[C@@H](CN3CCCN(C)CC3)[C@@H](CO)C2)cn1
-3.2

// lookup cytotoxicity at 70.5 h for CN(C)C(=O)N1CC(C(=O)NCC2CC2)C2(CCOCC2)C1 (configuration not stated)
3.79

// lookup cytotoxicity at 70.5 h for Cn1nccc1CNC(=O)Cn1nc(C(F)(F)F)cc1C1CC1
-10.5

// lookup cytotoxicity at 70.5 h for CCC1CC(=O)NCc2nc3sc(C)cn3c21 (configuration not stated)
-4.35

// lookup cytotoxicity at 70.5 h for Cc1n[nH]c(C)c1C1COCCN1c1ncnc2sccc12 (configuration not stated)
-13

// lookup cytotoxicity at 70.5 h for COC(=O)c1oc(CNC(C)(C)CO)cc1C
-5.24

---

assay procedure: Human HepG2 cell viability assay in 384 well format
Assay type: toxicity, cell-based
Set-up: dose 125 nL, time 70.5 hour; concentration not given beside the values
condition: HepG2 cells, read-out: Inhibition
readout label: cytotoxicity at 70.5 h (%)
Response body: numeric value in %, unit text excluded.

// lookup cytotoxicity at 70.5 h for CCc1ncc(CN2C[C@@H]3C[C@@H](O)CN3C[C@@H]2Cc2ccccc2)cn1
-5.41

// lookup cytotoxicity at 70.5 h for COC(=O)c1cccc(S(=O)(=O)NCC(c2ccco2)N2CCCC2)c1 (stereo not given)
-14.2

// lookup cytotoxicity at 70.5 h for CC(C)c1nnc2ccc(N3CCC(C(N)=O)CC3)nn12
3.97

Next:
// lookup cytotoxicity at 70.5 h for O=C(CCn1c(C(F)(F)F)cc2cccnc21)N1CCCC1
-0.515

// lookup cytotoxicity at 70.5 h for O=C1OCC(CO)N1Cc1cccc(Cl)c1F (stereo not given)
26.5

// lookup cytotoxicity at 70.5 h for Cc1ccc(NC(=O)N2CCN(C(=O)CC3CCCC3)CC2)s1
-10.2

// lookup cytotoxicity at 70.5 h for COCCn1nc(C(=O)N2CCN(C)CC2C)ccc1=O (stereo not given)
-4.08

---

Listing: cytotoxicity at 70.5 h of selected compounds
assay procedure: Human HepG2 cell viability assay in 384 well format
Format: toxicity, cell-based
Parameters: dose 125 nL, time 70.5 hour; concentration not given beside the values
condition: HepG2 cells, read-out: Inhibition
Response body: numeric value in %, unit text excluded.

// lookup cytotoxicity at 70.5 h for O=C(NC1CCN(c2cccc(C(F)(F)F)n2)CC1)C1CC1
23.1

// lookup cytotoxicity at 70.5 h for O=C(c1cccs1)N1CC[C@H]2[C@@H]1CCC(=O)N2c1cccnc1
-11.5

// lookup cytotoxicity at 70.5 h for CNC(=O)[C@@H]1COC[C@H]2CN(C(=O)c3cccc(OC)c3)C[C@H]21
9.55

// lookup cytotoxicity at 70.5 h for Cn1ccnc1C(=O)N[C@@H]1CN(Cc2ccoc2)[C@@H]2CCCO[C@@H]21
-2.77

// lookup cytotoxicity at 70.5 h for CC(=O)NCCC(=O)NCc1cc(Br)ccc1OC(F)F
-7.14

// lookup cytotoxicity at 70.5 h for Cc1cccc(CN2CC[C@@H]3[C@@H]2CCN3C(=O)c2ccoc2C)n1
0.304

// lookup cytotoxicity at 70.5 h for CCn1ncc2c(C(F)(F)F)cc(-c3cnn(C)c3)nc21
-11.4

// lookup cytotoxicity at 70.5 h for Cn1nnnc1SC1CCCN(c2cccc(F)c2)C1=O (centres undefined)
19.4

In the following, a different compound is considered.
// lookup cytotoxicity at 70.5 h for COc1ccc(-c2n[nH]cc2CN(C)Cc2nccn2C)c(F)c1
-3.33

---

assay procedure: Human HepG2 cell viability assay in 384 well format
Format: toxicity, cell-based
Set-up: dose 125 nL, time 70.5 hour; concentration not given beside the values
condition: HepG2 cells, read-out: Inhibition
readout label: cytotoxicity at 70.5 h (%)
Response body: numeric value in %, unit text excluded.

Some molecules with recorded cytotoxicity at 70.5 h:
// lookup cytotoxicity at 70.5 h for CCc1cc(CNC(=O)N2CCC(Cc3cnn(C)c3)C2)on1 (stereo unspecified)
-4.1

// lookup cytotoxicity at 70.5 h for O=C1CC[C@H]2CN(Cc3ccc(Cl)s3)CC[C@H]2N1CCc1c[nH]cn1
-7.7

// lookup cytotoxicity at 70.5 h for CCOC1COC2(CCN(c3ccccn3)CC2)C1 (stereo unspecified)
-0.266

// lookup cytotoxicity at 70.5 h for CCS(=O)(=O)NCC1OCCc2cn(CCOC)nc21 (stereo unspecified)
-3.26

// lookup cytotoxicity at 70.5 h for CC(C)CN1CCN(C)C(CCO)C1 (stereo unspecified)
-8.39

Next:
// lookup cytotoxicity at 70.5 h for Cc1noc(CCCC(=O)N(CCC(=O)O)Cc2ccc(F)c(F)c2)n1
-3.72

---

assay procedure: Human HepG2 cell viability assay in 384 well format
Type: toxicity, cell-based
Parameters: dose 125 nL, time 70.5 hour; concentration not given beside the values
condition: HepG2 cells, read-out: Inhibition
Listing: cytotoxicity at 70.5 h of selected molecules
Response body: numeric value in %, unit text excluded.

Some molecules with recorded cytotoxicity at 70.5 h:
// lookup cytotoxicity at 70.5 h for Nc1nc2c(c3c1C(=O)NC3=O)CCC2
-14.7

// lookup cytotoxicity at 70.5 h for O=c1c2c(ncn1CCCO)nc1n2CCC1
-1.36

// lookup cytotoxicity at 70.5 h for Cc1cccnc1N1CCN(C(=O)C(C)n2ccnc2C(C)C)CC1 (configuration not stated)
-2.78

// lookup cytotoxicity at 70.5 h for CC(=O)N[C@H]1CCO[C@@H](c2cccc(NC(=O)c3cccc(F)c3)c2)C1
-8.41

// lookup cytotoxicity at 70.5 h for O=C(CS(=O)(=O)Cc1cccc(Br)c1)Nc1cn[nH]c1
-2.81

// lookup cytotoxicity at 70.5 h for CCc1c(C)nn2c(O)cc(C3CCN(C(=O)c4cnn(C)c4)C3)nc12 (configuration not stated)
-0.531

Next:
// lookup cytotoxicity at 70.5 h for Cc1cnccc1N1CCN(C[C@]2(O)CCCN3CCCC[C@@H]32)CC1
4.29

---

assay procedure: Human HepG2 cell viability assay in 384 well format
Assay type: toxicity, cell-based
Parameters: dose 125 nL, time 70.5 hour; concentration not given beside the values
condition: HepG2 cells, read-out: Inhibition
readout label: cytotoxicity at 70.5 h (%)
Response body: numeric value in %, unit text excluded.

// lookup cytotoxicity at 70.5 h for O=C(CCc1nc(Cl)n[nH]1)NC1CCCN(CC2CCCCC2)C1 (centres undefined)
0.564

Next:
// lookup cytotoxicity at 70.5 h for Nc1ncccc1CN1CCOCC1CC(=O)NCc1ccccn1 (centres undefined)
19.3

// lookup cytotoxicity at 70.5 h for Cc1nc(CN2CCCC(NCC(=O)Nc3cccnc3)C2)no1 (centres undefined)
-8.83

// lookup cytotoxicity at 70.5 h for COCCN(C)C[C@@H]1CN(C(=O)c2ccc(C)c(Cl)c2)C[C@@H]1CO
1.13
